- measured_target: UniProt P04049
- Sequence (P04049 whole entry): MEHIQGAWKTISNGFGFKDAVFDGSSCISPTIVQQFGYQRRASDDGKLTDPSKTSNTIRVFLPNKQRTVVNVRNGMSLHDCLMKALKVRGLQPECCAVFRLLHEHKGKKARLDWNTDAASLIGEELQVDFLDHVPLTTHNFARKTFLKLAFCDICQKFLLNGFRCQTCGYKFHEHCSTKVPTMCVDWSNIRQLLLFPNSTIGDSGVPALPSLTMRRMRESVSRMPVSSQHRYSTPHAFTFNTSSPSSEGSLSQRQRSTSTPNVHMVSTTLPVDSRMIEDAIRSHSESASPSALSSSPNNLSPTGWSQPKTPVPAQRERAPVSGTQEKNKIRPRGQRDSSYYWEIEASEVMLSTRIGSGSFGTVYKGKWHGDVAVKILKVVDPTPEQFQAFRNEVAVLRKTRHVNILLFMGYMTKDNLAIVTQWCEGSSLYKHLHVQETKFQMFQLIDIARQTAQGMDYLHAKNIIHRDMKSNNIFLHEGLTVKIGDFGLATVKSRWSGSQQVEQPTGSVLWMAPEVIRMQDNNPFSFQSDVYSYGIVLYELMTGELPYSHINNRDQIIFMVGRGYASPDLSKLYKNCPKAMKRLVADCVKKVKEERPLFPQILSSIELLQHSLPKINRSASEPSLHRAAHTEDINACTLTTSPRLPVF
- test_summary: Luciferase-coupled chemiluminescence kinase assay (ATP consumption), c-Raf
- Type: biochemical
- measurement_setup: read-out: cRaf-1 IC50
# IC50 annotations

The examples below pair each entry with its known result.
compound="CC(C)c1cccc(N2C(=O)c3ccccc3C2(O)c2ccc3c(c2)NC(=O)CO3)c1 (centres unmarked)" readout=IC50 result="0.1 to 1 µM"
compound="COC(=O)Nc1nc2cc(C3(O)c4ccccc4C(=O)N3CCc3ccccc3)ccc2[nH]1 (centres unmarked)" readout=IC50 result="1 to 10 µM"

Look at this compound and give its reported IC50. O=C(Nc1nc2cc(C3(O)c4ccccc4C(=O)N3Cc3ccccc3)ccc2[nH]1)OCCF (centres unmarked) < 0.1 µM

So what does the record say about IC50 for COC(=O)Nc1nc2cc(C3(O)c4ccccc4C(=O)N3C(C)c3cc(Cl)cs3)ccc2[nH]1 (centres unmarked) ? < 0.1 µM

So what does the record say about IC50 for COC(=O)Nc1nc2cc(C3(O)c4ccccc4C(=O)N3c3cccc(F)c3)ccc2[nH]1 (centres unmarked) ? < 0.1 µM

Which value of IC50 has been reported for CCC(=O)Nc1nc2cc(C3(O)c4ccccc4C(=O)N3Cc3ccccc3)ccc2[nH]1 (centres unmarked) in the records? < 0.1 µM

Fill in the blank: the reported IC50 of COC(=O)Nc1nc2ccc(C3(O)c4ccccc4C(=O)N3Cc3ccc(F)cc3)cc2[nH]1 (centres unmarked) is ____. 0.1 to 1 µM

Quick one: IC50 of COC(=O)Nc1nc2cc(C3(O)c4ccccc4C(=O)N3Cc3ccsc3)ccc2[nH]1 (centres unmarked) ? < 0.1 µM
